biological target: DNA topoisomerase 1 (Homo sapiens); experiment: Inhibition of human topoisomerase 1-mediated DNA relaxation activity at 5 uM after 10 mins relative to control

Compound: CC(CN(C)C)Oc1ccc2c3c(oc2c1)C(=O)c1ccccc1C3=O (stereo not given)
inhibition (%): 12
--
Compound: CC(COc1cc2oc3c(c2cc1Cl)C(=O)c1ccccc1C3=O)N(C)C (stereo not given)
inhibition (%): 0
--
Compound: CC(C)N(CCOc1cc2oc3c(c2cc1Cl)C(=O)c1ccccc1C3=O)C(C)C
inhibition (%): 14
--
Compound: CC(CN(C)C)Oc1cc2oc3c(c2cc1Cl)C(=O)c1cccnc1C3=O (stereo not given)
inhibition (%): 0
--
Compound: CC(COc1ccc2c3c(oc2c1)C(=O)c1ccccc1C3=O)N(C)C (stereo not given)
inhibition (%): 14
--
Compound: CC(COc1ccc2c3c(oc2c1)C(=O)c1ncccc1C3=O)N(C)C (stereo not given)
inhibition (%): 0
--
Compound: CC(C)N(CCOc1ccc2c3c(oc2c1)C(=O)c1ncccc1C3=O)C(C)C
inhibition (%): 0
--
Compound: CCN(CC)CCOc1ccc2c3c(oc2c1)C(=O)c1ncccc1C3=O
inhibition (%): 0
--
Compound: CC(C)N(CCOc1ccc2c3c(oc2c1)C(=O)c1ccccc1C3=O)C(C)C
inhibition (%): 10
--
Compound: CCN(CC)CCOc1cc2oc3c(c2cc1Cl)C(=O)c1ccccc1C3=O
inhibition (%): 19

Each recorded value in this set is attributed to ChEMBL document CHEMBL1146354.
